Reported values: MIC for Staphylococcus aureus ATCC 25923, one per item.

- COMPOUND: "CC(C)[C@H](NC(=O)[C@H](Cc1ccc(O)cc1)NC(=O)[C@H](CO)NC(=O)[C@H](CCCCN)NC(=O)[C@@H](N)Cc1c[nH]c2ccccc12)C(=O)N[C@@H](CCCN=C(N)N)C(=O)N[C@@H](CCCN=C(N)N)C(=O)N[C@@H](Cc1c[nH]c2ccccc12)C(=O)N[C@@H](CCCN=C(N)N)C(=O)N[C@@H](CO)C(N)=O [WKSYVRRWRS]"
  MIC: "> 100 µM"
- COMPOUND: "CC(C)C[C@H](NC(=O)[C@H](C)NC(=O)[C@@H](NC(=O)[C@H](CCCCN)NC(=O)[C@H](C)NC(=O)[C@H](CCCN=C(N)N)NC(=O)[C@H](CCCCN)NC(=O)[C@H](CC(C)C)NC(=O)[C@H](C)NC(=O)CN)[C@@H](C)O)C(N)=O [GALKRAKTAL]"
  MIC: "> 512 µM"
- COMPOUND: "NC(=O)CC[C@H](NC(=O)[C@H](Cc1c[nH]c2ccccc12)NC(=O)[C@H](CCCN=C(N)N)NC(=O)[C@H](CCCN=C(N)N)NC(=O)[C@H](Cc1c[nH]c2ccccc12)NC(=O)[C@@H](N)Cc1ccccc1)C(=O)N[C@@H](Cc1c[nH]c2ccccc12)C(=O)N[C@@H](CCCN=C(N)N)C(=O)N[C@@H](CCCN=C(N)N)C(=O)N[C@@H](CCCN=C(N)N)C(=O)N[C@@H](Cc1c[nH]c2ccccc12)C(=O)N[C@@H](Cc1ccccc1)C(N)=O [FWRRWQWRRRWF]"
  MIC: "16 µM"

---

Below are MIC values recorded for Escherichia coli ATCC 25922.

- CHEMICAL STRUCTURE: "CC(C)C[C@H](NC(=O)[C@H](Cc1c[nH]c2ccccc12)NC(=O)[C@H](CCCCN)NC(=O)[C@H](CCCCN)NC(=O)[C@@H](N)CC(C)C)C(=O)N[C@@H](CCCCN)C(=O)N[C@@H](CCCCN)C(N)=O"
  MEASUREMENT UNITS: "µM"
  BOUND TYPE: ">"
  MIC: 212
- CHEMICAL STRUCTURE: "CC[C@H](C)[C@H](NC(=O)[C@H](CCCNC(=N)N)NC(=O)[C@H](CCC(N)=O)NC(=O)[C@@H](NC(=O)[C@@H](NC(=O)[C@H](CCCNC(=N)N)NC(=O)[C@H](CCCCN)NC(=O)[C@H](Cc1ccccc1)NC(=O)CN)[C@@H](C)CC)C(C)C)C(=O)N[C@@H](CCCCN)C(=O)N[C@@H](CC(=O)O)C(=O)N[C@@H](Cc1ccccc1)C(=O)N[C@@H](CC(C)C)C(=O)N[C@@H](CCCNC(=N)N)C(=O)N[C@@H](CC(N)=O)C(=O)N[C@@H](CC(C)C)C(=O)N[C@H](C(N)=O)C(C)C"
  MEASUREMENT UNITS: "µM"
  BOUND TYPE: "="
  MIC: 4.4
- CHEMICAL STRUCTURE: "CC[C@H](C)[C@H](NC(=O)[C@H](CCCN=C(N)N)NC(=O)[C@@H](N)Cc1c[nH]c2ccccc12)C(=O)N[C@@H](CCCN=C(N)N)C(=O)N1CCC[C@H]1C(=O)N[C@@H](CCCN=C(N)N)C(=O)N1CCC[C@H]1C(=O)N1CCC[C@H]1C(=O)N[C@@H](CCCN=C(N)N)C(=O)N[C@@H](CC(C)C)C(=O)N1CCC[C@H]1C(=O)N[C@@H](CCCN=C(N)N)C(=O)N1CCC[C@H]1C(=O)N[C@@H](CCCN=C(N)N)C(=O)N1CCC[C@H]1C(=O)N[C@@H](CCCN=C(N)N)C(=O)O"
  MEASUREMENT UNITS: "µM"
  BOUND TYPE: "="
  MIC: 1
- CHEMICAL STRUCTURE: "CC[C@H](C)[C@H](NC(=O)[C@H](CCCCN)NC(=O)[C@H](C)NC(=O)[C@H](C)NC(=O)[C@H](CC(C)C)NC(=O)[C@H](CCCN=C(N)N)NC(=O)[C@H](CC(C)C)NC(=O)[C@H](C)NC(=O)[C@H](CC(C)C)NC(=O)[C@H](CCCCN)NC(=O)[C@H](CC(C)C)NC(=O)[C@H](CCCCN)NC(=O)[C@H](CCCCN)NC(=O)[C@H](CCSC)NC(=O)[C@@H]1CCCN1)C(=O)N[C@@H](C)C(=O)N1CCC[C@H]1C(=O)N[C@H](C(=O)N[C@@H](Cc1c[nH]c2ccccc12)C(=O)O)C(C)C"
  MEASUREMENT UNITS: "µM"
  BOUND TYPE: "="
  MIC: 8
- CHEMICAL STRUCTURE: "CC(C)C[C@H](NC(=O)[C@H](C)NC(=O)[C@H](CCCCN)NC(=O)[C@H](C)NC(=O)[C@H](CC(C)C)NC(=O)[C@H](CC(=O)O)NC(=O)[C@@H](N)CCC(=O)O)C(=O)N[C@@H](C)C(=O)N[C@@H](CCCCN)C(=O)N[C@@H](CCCCN)C(=O)O"
  MEASUREMENT UNITS: "µM"
  BOUND TYPE: "="
  MIC: 4600
- CHEMICAL STRUCTURE: "CC[C@H](C)[C@H](NC(=O)[C@@H](NC(=O)[C@H](CCCCN)NC(=O)CNC(=O)[C@H](C)NC(=O)[C@H](CC(C)C)NC(=O)[C@H](CC(N)=O)NC(=O)[C@H](CCCCN)NC(=O)[C@H](CC(C)C)NC(=O)[C@@H](NC(=O)[C@H](CC(=O)O)NC(=O)[C@H](Cc1ccccc1)NC(=O)[C@H](Cc1ccccc1)NC(=O)[C@@H](N)Cc1ccccc1)[C@@H](C)O)C(C)C)C(=O)NCC(=O)N[C@@H](C)C(=O)N[C@@H](CC(C)C)C(=O)N[C@H](C(N)=O)[C@@H](C)O"
  MEASUREMENT UNITS: "µM"
  BOUND TYPE: "="
  MIC: 62
